experiment: in vitro; conditions: human, A549 cells
Hi! Just check whether selectivity ratio is below 80. Below gives satisfied, equal or above gives not satisfied.

compound | class
CC/C(=C(/c1ccc(NC(=O)C2CCN(C)C2)cc1)c1ccc(OCCN2CCCC2)cc1)c1ccccc1 (stereo unspecified) | not satisfied
CC/C(=C(/c1ccc(NC(=O)CN2CCOCC2)cc1)c1ccc(OCCN2CCOCC2)cc1)c1ccccc1 | satisfied
COc1ccc2c(Oc3ccc(OCCN4CCCCC4)cc3)c(-c3ccccc3)sc2c1 | not satisfied
CC/C(=C(/c1ccc(NC(=O)CN2CCOCC2)cc1)c1ccc(OCCN2CCCC2)cc1)c1ccccc1 | satisfied
CCC(=C(c1ccc(OCCN2CCCC2)cc1)c1ccc(OCCN2CCCC2)cc1)c1ccccc1 | not satisfied
Oc1ccc2c(Oc3ccc(OCCN4CCCCC4)cc3)c(-c3ccccc3)sc2c1 | satisfied
Oc1ccc2c(Oc3ccc(OCCN4CCCCC4)cc3)c(-c3ccc(F)cc3)sc2c1 | satisfied
CC/C(=C(/c1ccc(NC(=O)N2CCN(C)CC2)cc1)c1ccc(OCCN2CCCC2)cc1)c1ccccc1 | not satisfied
Nc1ccc(-c2sc3cc(O)ccc3c2Oc2ccc(OCCN3CCCCC3)cc2)cc1 | not satisfied

----------
assay: in vitro; settings: human, A549 cells
metric.name: selectivity ratio

molecule | metric.name | qualifier.operator | recorded.number
COc1ccc2c(Oc3ccc(OCCN4CCCCC4)cc3)c(-c3ccc(Br)cc3)sc2c1 | selectivity ratio | = | 74
Cc1cc(F)cc(C)c1C(=O)c1sc2cc(O)ccc2c1Oc1ccc(OCCN2CC(CF)C2)cc1 | selectivity ratio | = | 21
CC1=C(c2ccc(O)cc2)[C@H](c2ccc(OCCN3CCCCC3)cc2)Oc2ccccc21 | selectivity ratio | = | 11
Cc1c(-c2ccc(O)cc2)n(Cc2ccc(OCCN3CCCCCC3)cc2)c2ccc(O)cc12 | selectivity ratio | = | 10
COc1ccc2c(Oc3ccc(OCCN4CCCCC4)cc3)c(-c3ccc(Br)cc3)[s+]([O-])c2c1 (stereo not drawn) | selectivity ratio | > | 47
CCNCCc1ccc(CN(CC)c2cc(OC)ccc2[C@@H]2CCc3cc(O)ccc3C2)cc1 | selectivity ratio | = | 44
CC/C(=C(/c1ccc(NC(=O)CC2CCN(C)CC2)cc1)c1ccc(OCCN2CCCC2)cc1)c1ccccc1 | selectivity ratio | = | 1400
Cc1c(-c2ccc(O)cc2)nn(-c2ccc(O)cc2)c1-c1ccc(OCCN2CCCCC2)cc1 | selectivity ratio | = | 11
COc1ccc(-c2sc3cc(OC)ccc3c2Oc2ccc(OCCN3CCC(CCNC(=O)CCCCNC(=O)OC(C)(C)C)CC3)cc2)cc1 | selectivity ratio | = | 57
OCCOc1ccc(/C(=C(/CCCl)c2ccccc2)c2ccccc2)cc1 | selectivity ratio | = | 7
CCC(c1ccccc1)C(O)(c1ccc(OCCN(C)C)cc1)c1cccc(O)c1 (stereo not drawn) | selectivity ratio | = | 22
CN(C)CCOc1ccc(/C(=C(/CCCl)c2ccccc2)c2ccccc2)cc1 | selectivity ratio | = | 229
CC/C(=C(/c1ccc(NC(=O)C2CCN(C)CC2)cc1)c1ccc(OCCN2CCCC2)cc1)c1ccccc1 | selectivity ratio | = | 590
COc1ccc2c(c1)CCC(c1ccccc1)=C2c1ccc(OCCN2CCCC2)cc1 | selectivity ratio | = | 82
CC/C(=C(/c1ccc(NC(=O)CN2CCN(C)CC2)cc1)c1ccc(OCCN2CCCC2)cc1)c1ccccc1 | selectivity ratio | = | 1400
CC/C(=C(/c1ccc(N)cc1)c1ccc(OCCN2CCCC2)cc1)c1ccccc1 | selectivity ratio | = | 147
CC/C(=C(/c1ccc(NCCN2CCOCC2)cc1)c1ccc(OCCN2CCOCC2)cc1)c1ccccc1 | selectivity ratio | = | 111
Cc1ccccc1C(=O)c1sc2cc(O)ccc2c1Oc1ccc(OCCN2CC(CF)C2)cc1 | selectivity ratio | = | 27
